molecular target: Cytochrome P450 2C8 (Homo sapiens)
Sequence (P10632 whole entry): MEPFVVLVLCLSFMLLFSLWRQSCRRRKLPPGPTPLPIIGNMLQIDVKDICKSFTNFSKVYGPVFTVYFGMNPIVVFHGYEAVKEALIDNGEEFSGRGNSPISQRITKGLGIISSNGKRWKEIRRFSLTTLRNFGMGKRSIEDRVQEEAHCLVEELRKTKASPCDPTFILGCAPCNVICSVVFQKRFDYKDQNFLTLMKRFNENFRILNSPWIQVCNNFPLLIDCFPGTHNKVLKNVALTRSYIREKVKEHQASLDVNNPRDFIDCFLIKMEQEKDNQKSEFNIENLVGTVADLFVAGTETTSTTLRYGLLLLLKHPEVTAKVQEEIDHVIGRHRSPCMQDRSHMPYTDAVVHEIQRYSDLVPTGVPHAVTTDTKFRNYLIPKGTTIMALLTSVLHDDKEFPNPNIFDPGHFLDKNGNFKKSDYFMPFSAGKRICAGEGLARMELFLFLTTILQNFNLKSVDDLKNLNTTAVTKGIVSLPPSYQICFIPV
measurement.name: IC50 (µM)
Return type: number; implicit unit µM.

# input Give me measured IC50, please, for this compound: C[C@](O)(CS(C)(=O)=O)C(=O)N[C@@H]1CC[C@@]2(S(=O)(=O)c3ccc(F)cc3)c3ccc(C(F)(C(F)(F)F)C(F)(F)F)cc3CC[C@@H]12
# output 13

# input Give me measured IC50, please, for this compound: C[C@@](O)(CS(C)(=O)=O)C(=O)N[C@@H]1CC[C@@]2(S(=O)(=O)c3ccc(F)cc3)c3ccc(C(F)(C(F)(F)F)C(F)(F)F)nc3CC[C@@H]12
# output 7.6

====

experiment: Cmax in cynomolgus monkey at 2 mg/kg, po; type: ADME, organism-based, Macaca fascicularis; design: route oral, dose 2 mg/kg; settings: in vivo
measurement.name: Cmax (nM)
Return type: number; implicit unit nM.

# input Give me measured Cmax, please, for this compound: C[C@@](O)(CS(C)(=O)=O)C(=O)N[C@@H]1CC[C@@]2(S(=O)(=O)c3ccc(F)cc3)c3ccc(C(F)(C(F)(F)F)C(F)(F)F)nc3CC[C@@H]12
# output 600

====

experiment: AUC in dog at 1 mg/kg, iv; format: ADME, organism-based, Canis lupus familiaris; parameters: dose 1 mg/kg; details: in vivo
measurement.name: AUC (µM·h)
Return type: number; implicit unit µM·h.

# input Give me measured AUC, please, for this compound: C[C@@](O)(CS(C)(=O)=O)C(=O)N[C@@H]1CC[C@@]2(S(=O)(=O)c3ccc(F)cc3)c3ccc(C(F)(C(F)(F)F)C(F)(F)F)nc3CC[C@@H]12
# output 114

====

test: AUC in Balb/c mouse at 2 mg/kg, iv; type: ADME, organism-based; design: dose 2 mg/kg; conditions: in vivo
measurement.name: AUC (µM·h)
Return type: number; implicit unit µM·h.

# input Give me measured AUC, please, for this compound: C[C@@](O)(CS(C)(=O)=O)C(=O)N[C@@H]1CC[C@@]2(S(=O)(=O)c3ccc(F)cc3)c3ccc(C(F)(C(F)(F)F)C(F)(F)F)nc3CC[C@@H]12
# output 22.7

====

test: Tmax in cynomolgus monkey at 2 mg/kg, po; assay type: ADME, organism-based, Macaca fascicularis; conditions: in vivo
measurement.name: Tmax (h)
Return type: number; implicit unit h.

# input Give me measured Tmax, please, for this molecule: C[C@@](O)(CS(C)(=O)=O)C(=O)N[C@@H]1CC[C@@]2(S(=O)(=O)c3ccc(F)cc3)c3ccc(C(F)(C(F)(F)F)C(F)(F)F)nc3CC[C@@H]12
# output 7

====

assay: Tmax in Balb/c mouse at 4 mg/kg, po; assay type: ADME, organism-based; conditions: in vivo
measurement.name: Tmax (h)
Return type: number; implicit unit h.

# input Give me measured Tmax, please, for this compound: C[C@@](O)(CS(C)(=O)=O)C(=O)N[C@@H]1CC[C@@]2(S(=O)(=O)c3ccc(F)cc3)c3ccc(C(F)(C(F)(F)F)C(F)(F)F)nc3CC[C@@H]12
# output 2

====

molecular target: UniProtKB Q92753; experiment: Inhibition of RORbeta (unknown origin)
Sequence (Q92753 whole entry): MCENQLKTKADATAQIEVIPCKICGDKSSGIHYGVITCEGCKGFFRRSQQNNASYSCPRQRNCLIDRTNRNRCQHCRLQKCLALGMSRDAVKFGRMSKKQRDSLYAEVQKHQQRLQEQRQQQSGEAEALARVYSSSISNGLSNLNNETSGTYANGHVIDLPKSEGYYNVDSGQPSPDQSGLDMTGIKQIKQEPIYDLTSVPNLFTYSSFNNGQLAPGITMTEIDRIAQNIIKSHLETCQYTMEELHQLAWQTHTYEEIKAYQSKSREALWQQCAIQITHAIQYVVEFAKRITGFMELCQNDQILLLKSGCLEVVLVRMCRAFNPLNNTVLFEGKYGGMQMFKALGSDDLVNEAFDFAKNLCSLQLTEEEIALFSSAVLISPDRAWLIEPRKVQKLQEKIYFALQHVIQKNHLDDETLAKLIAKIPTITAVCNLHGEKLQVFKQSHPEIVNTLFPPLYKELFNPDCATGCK
measurement.name: EC50

# input Give me measured EC50, please, for this compound: C[C@@](O)(CS(C)(=O)=O)C(=O)N[C@@H]1CC[C@@]2(S(=O)(=O)c3ccc(F)cc3)c3ccc(C(F)(C(F)(F)F)C(F)(F)F)nc3CC[C@@H]12
# output > 10 µM
